System: 885512-296-R-J2-PDC complex spheroid growth, % test/control
measurement_description: Anticancer human tumor 885512-296-R-J2-PDC patient-derived breast carcinoma cell line growth inhibition [AhR]; active means viability on the fitted dose curve at most 10% of control; inactive means the rest
measurement_parameters: second compound 10 µM; first compound 0.1 µM
In this exercise, the only acceptable responses are 1 = active, -1 = inactive

>>> class_assignment("Nc1ccn(C2OC(CO)C(O)C2(F)F)c(=O)n1 (stereo unspecified) + Cc1cncc(-c2nc(NCCc3c[nH]c4ccccc34)c3ncn(C(C)C)c3n2)c1")
1
>>> class_assignment("COc1cc(Nc2ncc3c(n2)-c2ccc(Cl)cc2C(c2c(F)cccc2OC)=NC3)ccc1C(=O)O + Cc1cncc(-c2nc(NCCc3c[nH]c4ccccc34)c3ncn(C(C)C)c3n2)c1")
-1
>>> class_assignment("O=C(c1cc(Cc2n[nH]c(=O)c3ccccc23)ccc1F)N1CCN(C(=O)C2CC2)CC1 + Cc1cncc(-c2nc(NCCc3c[nH]c4ccccc34)c3ncn(C(C)C)c3n2)c1")
-1
>>> class_assignment("Nc1ncn(C2CC(O)C(CO)O2)c(=O)n1 (stereo unspecified) + Cc1cncc(-c2nc(NCCc3c[nH]c4ccccc34)c3ncn(C(C)C)c3n2)c1")
-1
>>> class_assignment("O=C(C=Cc1cccc(S(=O)(=O)Nc2ccccc2)c1)NO + CC(CO)NC(=O)c1cc(-c2ccc(Cl)cc2)nn(-c2cnn(C)c2)c1=O")
-1

Tell me the assay call for Nc1ccccc1NC(=O)c1ccc(CNC(=O)OCc2cccnc2)cc1 + CC(CO)NC(=O)c1cc(-c2ccc(Cl)cc2)nn(-c2cnn(C)c2)c1=O please.
-1

###

System: 885512-296-R-J2-PDC complex spheroid growth, % test/control
measurement_description: Anticancer human tumor 885512-296-R-J2-PDC cell line growth inhibition [AhR];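 further: spheroids exposed to compounds for seven days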
measurement_parameters: second compound 0.1 µM; first compound 0.3 µM; active compounds read low
result_type: viability, T/C (%)
One number for each entry, in %.

See these solved cases before continuing.
>>> reported_measurement("CCN(c1cc(-c2ccc(CN3CCOCC3)cc2)cc(C(=O)NCc2c(C)cc(C)[nH]c2=O)c1C)C1CCOCC1 + Cc1ccccc1N=Nc1ccc(NC(=O)c2ccnn2C)c(C)c1")
80.5
>>> reported_measurement("O=C(C=Cn1cnc(-c2cc(C(F)(F)F)cc(C(F)(F)F)c2)n1)NNc1cnccn1 + CC(CO)NC(=O)c1cc(-c2ccc(Cl)cc2)nn(-c2cnn(C)c2)c1=O")
3.85

Shift focus to the following entry.
Record request: viability, T/C value, item CC(C)CC(NC(=O)C(Cc1ccccc1)NC(=O)c1cnccn1)B(O)O (stereo not drawn) + Cc1ccccc1N=Nc1ccc(NC(=O)c2ccnn2C)c(C)c1
0.15

###

System: 885512-296-R-J2-PDC complex spheroid growth, % test/control
measurement_description: Anticancer human tumor 885512-296-R-J2-PDC cell line growth inhibition [AhR];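 further: spheroids exposed to compounds for seven days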
measurement_parameters: second compound 10 µM; first compound 1 µM; active compounds read low
Excerpt: Multicellular complex tumor spheroid response to aryl hydrocarbon receptor antagonists in combination with a variety of drugs and investigational agents in selected tumor cell lines […] Compounds. […] If the clinical Cmax for an agent had not been determined, the highest concentration tested was 10 microM (Table 1). […]
result_type: viability, T/C (%)
Answers are plain numbers, in %.

See these solved cases before continuing.
>>> reported_measurement("COc1cc(Nc2ncc3c(n2)-c2ccc(Cl)cc2C(c2c(F)cccc2OC)=NC3)ccc1C(=O)O + CC(CO)NC(=O)c1cc(-c2ccc(Cl)cc2)nn(-c2cnn(C)c2)c1=O")
62.3
>>> reported_measurement("CC1COCCN1c1cc(C2(S(C)(=N)=O)CC2)nc(-c2ccnc3[nH]ccc23)n1 (stereo not given) + Cc1cncc(-c2nc(NCCc3c[nH]c4ccccc34)c3ncn(C(C)C)c3n2)c1")
18.2

Give one value of viability, T/C per listed molecule.
1. CC1(C)CCC(CN2CCN(c3ccc(C(=O)NS(=O)(=O)c4ccc(NCC5CCOCC5)c([N+](=O)[O-])c4)c(Oc4cnc5[nH]ccc5c4)c3)CC2)=C(c2ccc(Cl)cc2)C1 + CC(CO)NC(=O)c1cc(-c2ccc(Cl)cc2)nn(-c2cnn(C)c2)c1=O
2. O=C(c1cc(Cc2n[nH]c(=O)c3ccccc23)ccc1F)N1CCN(C(=O)C2CC2)CC1 + CC(CO)NC(=O)c1cc(-c2ccc(Cl)cc2)nn(-c2cnn(C)c2)c1=O
3. CC1(C)CCC(CN2CCN(c3ccc(C(=O)NS(=O)(=O)c4ccc(NCC5CCOCC5)c([N+](=O)[O-])c4)c(Oc4cnc5[nH]ccc5c4)c3)CC2)=C(c2ccc(Cl)cc2)C1 + Cc1cncc(-c2nc(NCCc3c[nH]c4ccccc34)c3ncn(C(C)C)c3n2)c1

103
93.6
12.4

###

Tested on: 885512-296-R-J2-PDC complex spheroid growth, % test/control
measurement_description: Anticancer human tumor 885512-296-R-J2-PDC cell line growth inhibition [AhR];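 further: spheroids exposed to compounds for seven days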
measurement_parameters: second compound 0.1 µM; first compound 0.1 µM; active compounds read low
From the text: Multicellular complex tumor spheroid response to aryl hydrocarbon receptor antagonists in combination with a variety of drugs and investigational agents in selected tumor cell lines […] Compounds. […] If the clinical Cmax for an agent had not been determined, the highest concentration tested was 10 microM (Table 1). […]
// NB: equality with 50% counts as Not met; only viability, T/C strictly below is Met

Please check: viability, T/C for CC1COCCN1c1cc(C2(S(C)(=N)=O)CC2)nc(-c2ccnc3[nH]ccc23)n1 (stereo not drawn) + CC(CO)NC(=O)c1cc(-c2ccc(Cl)cc2)nn(-c2cnn(C)c2)c1=O , strictly under 50% or not?
Not met

Please check: viability, T/C for CC[C@@]1(O)C(=O)OCc2c1cc1n(c2=O)Cc2cc3c(CN(C)C)c(O)ccc3nc2-1 + Cc1ccccc1N=Nc1ccc(NC(=O)c2ccnn2C)c(C)c1 , strictly under 50% or not?
Met

Please check: viability, T/C for Nc1ccccc1NC(=O)c1ccc(CNC(=O)OCc2cccnc2)cc1 + Cc1cncc(-c2nc(NCCc3c[nH]c4ccccc34)c3ncn(C(C)C)c3n2)c1 , strictly under 50% or not?
Not met

Please check: viability, T/C for CC1COCCN1c1cc(-c2ccnn2C)c2ccnc(-c3ccn[nH]3)c2n1 (stereo not drawn) + Cc1ccccc1N=Nc1ccc(NC(=O)c2ccnn2C)c(C)c1 , strictly under 50% or not?
Met

Please check: viability, T/C for O=C(C=Cc1cccc(S(=O)(=O)Nc2ccccc2)c1)NO + CC(CO)NC(=O)c1cc(-c2ccc(Cl)cc2)nn(-c2cnn(C)c2)c1=O , strictly under 50% or not?
Not met

Please check: viability, T/C for NS(=O)(=O)OCC1CC(n2ccc3c(NC4CCc5ccccc54)ncnc32)CC1O (stereo not drawn) + Cc1cncc(-c2nc(NCCc3c[nH]c4ccccc34)c3ncn(C(C)C)c3n2)c1 , strictly under 50% or not?
Met

###

Tested on: 885512-296-R-J2-PDC complex spheroid growth, % test/control
measurement_description: Anticancer human tumor 885512-296-R-J2-PDC cell line growth inhibition [AhR];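 further: spheroids exposed to compounds for seven days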
measurement_parameters: second compound 3.16 µM; first compound 3.16 µM; active compounds read low
// NB: equality with 30% counts as false (0); only viability, T/C strictly below is true (1)

>>> class_assignment("O=C(c1cc(Cc2n[nH]c(=O)c3ccccc23)ccc1F)N1CCN(C(=O)C2CC2)CC1 + CC(CO)NC(=O)c1cc(-c2ccc(Cl)cc2)nn(-c2cnn(C)c2)c1=O")
"false (0)"

Please check: viability, T/C for CC1COCCN1c1cc(C2(S(C)(=N)=O)CC2)nc(-c2ccnc3[nH]ccc23)n1 (stereo not given) + CC(CO)NC(=O)c1cc(-c2ccc(Cl)cc2)nn(-c2cnn(C)c2)c1=O , strictly under 30% or not?
true (1)

Please check: viability, T/C for COc1cccc2c1C(=O)c1c(O)c3c(c(O)c1C2=O)CC(O)(C(=O)CO)CC3OC1CC(N)C(O)C(C)O1 (stereo not given) + CC(CO)NC(=O)c1cc(-c2ccc(Cl)cc2)nn(-c2cnn(C)c2)c1=O , strictly under 30% or not?
true (1)

###

Tested on: 885512-296-R-J2-PDC complex spheroid growth, % test/control
measurement_description: Anticancer human tumor 885512-296-R-J2-PDC cell line growth inhibition [AhR]; active = viability on the fitted dose curve at most 10% of control; inactive = the rest;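 further: spheroids exposed to compounds for seven days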
measurement_parameters: second compound 10 µM; first compound 0.00949 µM
Description: Multicellular complex tumor spheroid response to aryl hydrocarbon receptor antagonists in combination with a variety of drugs and investigational agents in selected tumor cell lines […] Compounds. […] If the clinical Cmax for an agent had not been determined, the highest concentration tested was 10 microM (Table 1). […]
In this exercise, the only acceptable responses are 1 (yes) for active, 0 (no) for inactive

Tell me the assay call for CCN(c1cc(-c2ccc(CN3CCOCC3)cc2)cc(C(=O)NCc2c(C)cc(C)[nH]c2=O)c1C)C1CCOCC1 + Cc1ccccc1N=Nc1ccc(NC(=O)c2ccnn2C)c(C)c1 please.
0 (no)

Tell me the assay call for CC(C)CC(NC(=O)C(Cc1ccccc1)NC(=O)c1cnccn1)B(O)O (stereo not drawn) + Cc1cncc(-c2nc(NCCc3c[nH]c4ccccc34)c3ncn(C(C)C)c3n2)c1 please.
1 (yes)

Tell me the assay call for CCN(c1cc(-c2ccc(CN3CCOCC3)cc2)cc(C(=O)NCc2c(C)cc(C)[nH]c2=O)c1C)C1CCOCC1 + CC(CO)NC(=O)c1cc(-c2ccc(Cl)cc2)nn(-c2cnn(C)c2)c1=O please.
0 (no)
